Please provide measured remaining at 4 h, 10 μM for the entries that follow.
assay_notes: Peptide stability in simulated intestinal fluid (SIF)
Type: in vitro ADME
applied_conditions: pig, simulated intestinal fluid (SIF) with porcine pancreatin, Table 3-2, porcine pancreatin, pH 6.8, 37° C., 10 μM, 4 h, read-out: SIF (% remaining 4 h)
Description: Determination of Peptide Stability in Simulated Gastric Fluid (SGF) and Simulated Intestinal Fluid (SIF) SGF was prepared by dissolving sodium chloride (0.2 g) in 50 mL of water. A volume of 0.7 mL of 10 M HCl was added to adjust the pH of the solution to 1.2 and the volume made up to 100 mL with water. […] The incubation was performed at 37° C. with gentle shaking. […] Percent remaining at each timepoint was calculated relative to timepoint zero based on absolute peak areas.
*1 amine or outer side, *2 acyl side, *3 side chain or, on linkers, in order; H or OH if unused. Where a SMILES comes first, the peptide text is derived from it. Bridges are numbered along the chain shown (N, C = ends). [ ]: non-standard residue; d: D form. dTrp(6-F) = N[C@H](Cc1c[nH]c2cc(F)ccc12)C(=O)O; αMeAla(3-pyridyl) = C[C@](N)(Cc1cccnc1)C(=O)O; Phe(4-NH2) = Nc1ccc(C[C@H](N)C(=O)O)cc1; Phe(4-Me) = Cc1ccc(C[C@H](N)C(=O)O)cc1; 2Nal = N[C@@H](Cc1ccc2ccccc2c1)C(=O)O; AEF = NCCOc1ccc(C[C@H](N)C(=O)O)cc1; X1 = O=C(Cc1ccc(CN[*:1])cc1)[*:2]; αMeL = CC(C)C[C@](C)(N)C(=O)O; CH2COCH2 = O=C(C[*:1])C[*:2]; αMeV = CC(C)[C@](C)(N)C(=O)O; 3Amb = NCc1cccc(C(=O)O)c1; Dab = NCC[C@H](N)C(=O)O
Numbers only here, please. The scale is %.

# input compound: CC(C)C[C@]1(C)NC(=O)[C@H](Cc2ccc3ccccc3c2)NC(=O)[C@H](Cc2ccc(OCCN)cc2)NC(=O)[C@@H]2CCC(=O)NCC[C@H](NC(=O)[C@H](CO)NC(=O)Cc3ccc(cc3)CNC(=O)CC[C@@H](C(=O)N[C@@H](CCN)C(=O)N[C@@H](Cc3cccnc3)C(N)=O)NC1=O)C(=O)N[C@@H](Cc1c[nH]c3ccccc13)C(=O)N[C@@H](CCC(N)=O)C(=O)N2 (relative stereo) [Compound 123] ; wanted: its remaining at 4 h, 10 μM
4

Try CC[C@H](C)[C@@H]1NC(=O)Cc2ccc(cc2)CNC(=O)CC[C@@H](C(=O)N[C@@H](CCN)C(=O)N[C@@](C)(Cc2cccnc2)C(N)=O)NC(=O)[C@](C)(C(C)C)NC(=O)[C@@H](Cc2c[nH]c3cc(F)ccc23)NC(=O)[C@H](Cc2ccc(C)cc2)NC(=O)[C@@H]2CCNC(=O)CC[C@H](NC1=O)C(=O)N[C@@H](Cc1c[nH]c3ccccc13)C(=O)N[C@@H](CCC(N)=O)C(=O)N2 [Compound 177] ([X1]IEWQ[Dab][Phe(4-Me)][dTrp(6-F)][αMeV]E[Dab][αMeAla(3-pyridyl)]-NH2; lactam 3-6, N-10) next.
63

Try CC(C)C[C@]1(C)NC(=O)[C@H](Cc2ccc3ccccc3c2)NC(=O)[C@H](Cc2ccc(OCCN)cc2)NC(=O)[C@@H]2CSCC(=O)CSC[C@H](NC(=O)[C@H](CO)NC(=O)c3cccc(c3)CNC(=O)CC[C@@H](C(=O)N[C@@H](Cc3ccc(N)cc3)C(N)=O)NC1=O)C(=O)N[C@@H](Cc1c[nH]c3ccccc13)C(=O)N[C@@H](CCC(N)=O)C(=O)N2 [Compound 45] ([3Amb]SCWQC[AEF][2Nal][αMeL]E[Phe(4-NH2)]-NH2; linker 3-6 via CH2COCH2; lactam N-10) next.
34
